# TESTED_SYSTEM: NS3/NS4 complexes (Hepatitis C virus genotype 1a, UniProt P27958)
# Sequence (P27958 1027-1657): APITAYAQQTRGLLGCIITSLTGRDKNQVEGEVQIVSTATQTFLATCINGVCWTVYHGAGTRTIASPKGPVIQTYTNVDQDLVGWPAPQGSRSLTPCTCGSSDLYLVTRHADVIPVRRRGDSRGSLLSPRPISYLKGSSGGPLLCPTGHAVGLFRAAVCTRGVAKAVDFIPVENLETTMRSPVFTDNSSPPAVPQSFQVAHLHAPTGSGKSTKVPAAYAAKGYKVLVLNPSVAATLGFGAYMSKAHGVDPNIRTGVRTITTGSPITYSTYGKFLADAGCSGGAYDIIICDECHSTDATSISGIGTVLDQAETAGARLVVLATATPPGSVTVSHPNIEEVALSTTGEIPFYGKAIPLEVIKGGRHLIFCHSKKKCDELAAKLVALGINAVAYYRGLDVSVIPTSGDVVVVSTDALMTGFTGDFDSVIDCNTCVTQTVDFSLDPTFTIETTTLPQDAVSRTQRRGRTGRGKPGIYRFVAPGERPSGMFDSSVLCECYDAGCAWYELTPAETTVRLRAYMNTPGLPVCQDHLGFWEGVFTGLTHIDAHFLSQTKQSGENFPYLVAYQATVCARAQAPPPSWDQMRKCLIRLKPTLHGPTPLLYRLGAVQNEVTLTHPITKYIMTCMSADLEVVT
# Sequence (P27958 1658-1711): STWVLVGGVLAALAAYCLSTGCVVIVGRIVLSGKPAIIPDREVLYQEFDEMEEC
# MEASUREMENT_NOTES: NS3/NS4 inhibition activity (IC50)
# Assay type: biochemical
# ASSAY_CONTEXT: Table 2, read-out: IC50
pIC50: −log10 of the molar value.
I'd be grateful if you could share measured pIC50 for these entries.

[[record]]
structure_smiles = "Cc1ccc2c(c1)nc(O[C@@H]1C[C@H]3C(=O)N[C@]4(C(=O)NS(=O)(=O)C5(C)CC5)C[C@H]4/C=C\\CCCCC[C@H](Nc4ccccc4)C(=O)N3C1)n2C(C)C"
property_measured = "pIC50"
result = "> 8.00"

[[record]]
structure_smiles = "COc1ccc2c(O[C@@H]3C[C@H]4C(=O)N[C@]5(C(=O)NS(=O)(=O)C6CC6)C[C@H]5/C=C\\CCCCC[C@H](Nc5cccc(OC(F)(F)F)c5)C(=O)N4C3)cc(-c3nc(C(C)C)cs3)nc2c1C"
property_measured = "pIC50"
result = "> 8.00"


Batch of 6 molecules: report pIC50 for each.
1. CC1(S(=O)(=O)NC(=O)[C@@]23C[C@H]2/C=C\CCCCC[C@H](Nc2ccccc2F)C(=O)N2C[C@H](Oc4nc5ccccc5s4)C[C@H]2C(=O)N3)CC1
2. CC1(S(=O)(=O)NC(=O)[C@@]23C[C@H]2/C=C\CCCCC[C@H](Nc2ccc(Cl)cc2)C(=O)N2C[C@H](Oc4nc5ccccc5s4)C[C@H]2C(=O)N3)CC1
3. O=C1N[C@]2(C(=O)O)C[C@H]2/C=C\CCCCC[C@H](Nc2ccc(Cl)cc2)C(=O)N2C[C@H](Oc3nc4ccccc4s3)C[C@@H]12
4. CC(C)n1c(O[C@@H]2C[C@H]3C(=O)N[C@]4(C(=O)NS(=O)(=O)C5(C)CC5)C[C@H]4/C=C\CCCCC[C@H](Nc4ccccc4)C(=O)N3C2)nc2cc(F)ccc21
5. COc1ccc2c(O[C@@H]3C[C@H]4C(=O)N[C@]5(C(=O)NS(=O)(=O)N(C)C)C[C@H]5/C=C\CCCCC[C@H](Nc5cccc(F)c5)C(=O)N4C3)cc(-c3nc(C(C)C)cs3)nc2c1C
6. CC1(S(=O)(=O)NC(=O)[C@@]23C[C@H]2/C=C\CCCCC[C@H](Nc2cc(F)cc(F)c2)C(=O)N2C[C@H](Oc4nc5ccccc5s4)C[C@H]2C(=O)N3)CC1

1: > 8.00; 2: > 8.00; 3: 6.30 to 7.12; 4: > 8.00; 5: > 8.00; 6: > 8.00

Batch of 8 molecules: report pIC50 for each.
1. CC1(S(=O)(=O)NC(=O)[C@@]23C[C@H]2/C=C\CCCCC[C@H](Nc2ccc(-c4ccccc4)cc2)C(=O)N2C[C@H](Oc4nc5ccccc5s4)C[C@H]2C(=O)N3)CC1
2. COc1ccc2c(O[C@@H]3C[C@H]4C(=O)N[C@]5(C(=O)NS(=O)(=O)C6(C)CC6)C[C@H]5/C=C\CCCCC[C@H](Nc5cccc(C(F)(F)F)c5)C(=O)N4C3)cc(-c3ccccc3)nc2c1
3. COc1ccc2c(O[C@@H]3C[C@H]4C(=O)N[C@]5(C(=O)NS(=O)(=O)C6(C)CC6)C[C@H]5/C=C\CCCCC[C@H](Nc5ccc(C#N)cc5)C(=O)N4C3)cc(-c3nc(C(C)C)cs3)nc2c1C
4. COc1ccc2c(O[C@@H]3C[C@H]4C(=O)N[C@]5(C(=O)NS(=O)(=O)C6CC6)C[C@H]5/C=C\CCCCC[C@H](Nc5ccccc5)C(=O)N4C3)cc(-c3nc(C(C)C)cs3)nc2c1C
5. O=C1N[C@]2(C(=O)NOc3ccccc3)C[C@H]2/C=C\CCCCC[C@H](NCc2ccccc2)C(=O)N2C[C@H](Oc3nc4ccccc4s3)C[C@@H]12
6. CC(C)n1c(O[C@@H]2C[C@H]3C(=O)N[C@]4(C(=O)NS(=O)(=O)C5(C)CC5)C[C@H]4/C=C\CCCCC[C@H](Nc4ccccc4)C(=O)N3C2)nc2ccccc21
7. CC1(S(=O)(=O)NC(=O)[C@@]23C[C@H]2/C=C\CCCCC[C@H](Nc2ccccc2)C(=O)N2C[C@H](Oc4nc5ccc(Cl)cc5s4)C[C@H]2C(=O)N3)CC1
8. CC1(S(=O)(=O)NC(=O)[C@@]23C[C@H]2/C=C\CCCCC[C@H](Nc2ccc(Cl)c(Cl)c2)C(=O)N2C[C@H](Oc4nc5ccccc5s4)C[C@H]2C(=O)N3)CC1

> 8.00
> 8.00
> 8.00
> 8.00
6.30 to 7.12
> 8.00
> 8.00
> 8.00

Batch of 4 molecules: report pIC50 for each.
1. COc1ccc2c(O[C@@H]3C[C@H]4C(=O)N[C@]5(C(=O)NS(=O)(=O)C6(C)CC6)C[C@H]5/C=C\CCCCC[C@H](Nc5cccc(C)c5)C(=O)N4C3)cc(-c3nc(C(C)C)cs3)nc2c1C
2. O=C1N[C@]2(C(=O)O)C[C@H]2/C=C\CCCCC[C@H](Nc2ccccc2)C(=O)N2C[C@H](Oc3nc4ccccc4s3)C[C@@H]12
3. COc1ccc2c(O[C@@H]3C[C@H]4C(=O)N[C@]5(C(=O)NS(=O)(=O)C6CC6)C[C@H]5/C=C\CCCCC[C@H](Nc5ccc(C(F)(F)F)cc5)C(=O)N4C3)cc(-c3nc(C(C)C)cs3)nc2c1C
4. CCn1c(O[C@@H]2C[C@H]3C(=O)N[C@]4(C(=O)NS(=O)(=O)C5(C)CC5)C[C@H]4/C=C\CCCCC[C@H](Nc4ccccc4)C(=O)N3C2)nc2ccccc21

1: > 8.00; 2: 6.30 to 7.12; 3: > 8.00; 4: > 8.00
